All figures here come from patent US8546435B2.

EXPERIMENTAL SYSTEM: Human Ghrelin Receptor (GHS-R 1A) (Homo sapiens (Human), UniProt Q92847)
Sequence (Q92847 whole entry): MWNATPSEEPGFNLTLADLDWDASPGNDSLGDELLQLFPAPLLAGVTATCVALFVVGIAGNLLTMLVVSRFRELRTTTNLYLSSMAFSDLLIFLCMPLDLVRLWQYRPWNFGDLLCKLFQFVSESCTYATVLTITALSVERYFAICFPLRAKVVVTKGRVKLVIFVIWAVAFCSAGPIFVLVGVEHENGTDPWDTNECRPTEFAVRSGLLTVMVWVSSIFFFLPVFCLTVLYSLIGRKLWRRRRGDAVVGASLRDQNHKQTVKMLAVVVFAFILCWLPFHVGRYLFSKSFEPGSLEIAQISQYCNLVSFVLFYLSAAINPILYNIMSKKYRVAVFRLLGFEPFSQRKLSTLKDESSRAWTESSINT
EXPERIMENT SUMMARY: Calcium release, antagonist
Type: cell-based
CONDITION NOTES: 15 minutes preincubation, then ghrelin
Recorded measurements of IC50, one per entry
QUANTITY MEASURED: IC50 (nM)

>>> measured_value("COc1ccc(Cn2c([C@@H](Cc3ccccc3)NC(C)=O)nnc2[C@@H](Cc2c[nH]c3ccccc23)NC(=O)CO)cc1.O=C(O)C(F)(F)F [Cpd 6]")
2.1
>>> measured_value("COc1ccc(Cn2c([C@@H](Cc3c[nH]c4ccccc34)NC=O)nnc2[C@@H](Cc2c[nH]c3ccccc23)NC(=O)C(C)(C)N)cc1.O=C(O)C(F)(F)F [Cpd 9]")
32.6
>>> measured_value("COc1ccc(Cn2c([C@@H](Cc3c[nH]c4ccccc34)NC(C)=O)nnc2[C@@H](Cc2c[nH]c3ccccc23)NC(=O)C(C)(C)N)cc1.O=C(O)C(F)(F)F [Cpd 8]")
19.1
>>> measured_value("COc1ccc(Cn2c(CCc3ccccc3)nnc2[C@@H](Cc2c[nH]c3ccccc23)NC(=O)OCC(C)C)cc1.O=C(O)C(F)(F)F [Cpd 17]")
31.4
>>> measured_value("COc1ccc(Cn2c([C@@H](Cc3ccccc3)NC(C)=O)nnc2[C@@H](Cc2c[nH]c3ccccc23)NC(=O)[C@@H]2CNCCO2)cc1.O=C(O)C(F)(F)F [Cpd 7]")
3.8
>>> measured_value("CCOC(=O)Cc1nnc([C@@H](Cc2c[nH]c3ccccc23)NC(=O)c2cccnc2)n1Cc1ccc(OC)cc1 [Cpd 1]")
3

* * *

EXPERIMENTAL SYSTEM: Rat Ghrelin Receptor (GHS-R 1A) (Rattus norvegicus (Rat))
Sequence (O08725 whole entry): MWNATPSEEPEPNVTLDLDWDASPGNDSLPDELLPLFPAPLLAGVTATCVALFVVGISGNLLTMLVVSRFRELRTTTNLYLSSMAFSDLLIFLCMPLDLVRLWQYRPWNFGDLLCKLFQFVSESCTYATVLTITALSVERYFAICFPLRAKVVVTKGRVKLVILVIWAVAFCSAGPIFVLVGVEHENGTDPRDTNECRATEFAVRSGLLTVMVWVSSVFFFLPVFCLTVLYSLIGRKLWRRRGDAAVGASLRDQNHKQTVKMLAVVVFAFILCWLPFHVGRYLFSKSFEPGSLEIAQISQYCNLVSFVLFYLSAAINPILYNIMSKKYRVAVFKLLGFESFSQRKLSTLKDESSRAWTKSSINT
EXPERIMENT SUMMARY: Calcium release, antagonist
Assay type: cell-based
CONDITION NOTES: 15 minutes preincubation, then ghrelin; read-out: Rat Ghrelin Receptor Antagonist Calcium Release IC50
Description: Mouse LTK-cells (ATCC CCL-1.3) were stably transfected with a plasmid containing the CMV minimal promoter (CMVmin) linked to three cAMP response elements (CRE) followed by a luciferase reporter gene. Based on this parental cell line, single cell clones stably overexpressing the human, rat or mouse GHS-R 1A have been established and characterized with respect to suitability for the different assay formats. […] IC50 values were determined by using the GraphPad Prism analysis program (GraphPad Software). […]
Recorded measurements of IC50, one per entry
QUANTITY MEASURED: IC50 (nM)

>>> measured_value("COc1ccc(Cn2c(CCc3ccccc3)nnc2[C@@H](Cc2c[nH]c3ccccc23)NC(=O)OCC(C)C)cc1.O=C(O)C(F)(F)F")
925
>>> measured_value("COc1ccc(Cn2c([C@@H](Cc3c[nH]c4ccccc34)NC(C)=O)nnc2[C@@H](Cc2c[nH]c3ccccc23)NC(=O)c2ccccn2)cc1.O=C(O)C(F)(F)F")
29.9
>>> measured_value("COc1ccc(Cn2c([C@@H](Cc3ccccc3)NC=O)nnc2[C@@H](Cc2c[nH]c3ccccc23)NC(=O)c2ccccn2)cc1.O=C(O)C(F)(F)F")
290
>>> measured_value("COc1ccc(Cn2c([C@@H](Cc3c[nH]c4ccccc34)NC(C)=O)nnc2[C@@H](Cc2c[nH]c3ccccc23)NC(=O)C(C)(C)N)cc1.O=C(O)C(F)(F)F")
1050

* * *

Recorded measurements of Stability in Liver Microsomes Rat % Remaining after 1 h Incubation, one per entry
EXPERIMENT SUMMARY: Stability in liver microsomes
Format: in vitro ADME, rat
CONDITION NOTES: @37° C./1 mg/ml Liver Microsomes, 10 μM
QUANTITY MEASURED: Stability in Liver Microsomes Rat % Remaining after 1 h Incubation (%)

>>> measured_value("COc1ccc(Cn2c([C@@H](Cc3ccccc3)NC=O)nnc2[C@@H](Cc2c[nH]c3ccccc23)NC(=O)c2ccccn2)cc1.O=C(O)C(F)(F)F")
41.9
>>> measured_value("COc1ccc(Cn2c([C@@H](Cc3c[nH]c4ccccc34)NC(C)=O)nnc2[C@@H](Cc2c[nH]c3ccccc23)NC(=O)C(C)(C)N)cc1.O=C(O)C(F)(F)F")
64.3
>>> measured_value("COc1ccc(Cn2c([C@@H](Cc3c[nH]c4ccccc34)NC=O)nnc2[C@@H](Cc2c[nH]c3ccccc23)NC(=O)C(C)(C)N)cc1.O=C(O)C(F)(F)F")
54.8
>>> measured_value("COc1ccc(Cn2c([C@@H](Cc3ccccc3)NC(C)=O)nnc2[C@@H](Cc2c[nH]c3ccccc23)NC(=O)[C@@H]2CNCCO2)cc1.O=C(O)C(F)(F)F")
82.7
>>> measured_value("COc1ccc(Cn2c(CCc3c[nH]c4ccccc34)nnc2[C@@H](Cc2ccc3ccccc3c2)NC(=O)OC(C)(C)C)cc1.O=C(O)C(F)(F)F")
37.8
>>> measured_value("COc1ccc(Cn2c([C@@H](Cc3c[nH]c4ccccc34)NC(C)=O)nnc2[C@@H](Cc2c[nH]c3ccccc23)NC(=O)c2ccccn2)cc1.O=C(O)C(F)(F)F")
38.5

* * *

EXPERIMENT SUMMARY: CaCo-2 permeability assay
Type: in vitro ADME
CONDITION NOTES: human, a to b, 3 or 5 μM, 2 hours at 37° C., read-out: CaCo-2 Assay Papp ab
Recorded measurements of Papp A→B at 2 h, one per entry
QUANTITY MEASURED: Papp A→B at 2 h

>>> measured_value("COc1ccc(Cn2c([C@@H](Cc3ccccc3)NC(C)=O)nnc2[C@@H](Cc2c[nH]c3ccccc23)NC(=O)c2ccccn2)cc1.O=C(O)C(F)(F)F [Cpd 4]")
"1.41 ×10⁻⁶ cm/s"
>>> measured_value("COc1ccc(Cn2c([C@@H](Cc3ccccc3)NC=O)nnc2[C@@H](Cc2c[nH]c3ccccc23)NC(=O)c2ccccn2)cc1.O=C(O)C(F)(F)F [Cpd 5]")
"1.26 ×10⁻⁶ cm/s"
>>> measured_value("COc1ccc(Cn2c([C@@H](Cc3c[nH]c4ccccc34)NC(C)=O)nnc2[C@@H](Cc2c[nH]c3ccccc23)NC(=O)C(C)(C)N)cc1.O=C(O)C(F)(F)F [Cpd 8]")
"0.08 ×10⁻⁶ cm/s"
>>> measured_value("COc1ccc(Cn2c([C@@H](Cc3c[nH]c4ccccc34)NC(C)=O)nnc2[C@@H](Cc2c[nH]c3ccccc23)NC(=O)c2ccccn2)cc1.O=C(O)C(F)(F)F [Cpd 3]")
"0.37 ×10⁻⁶ cm/s"
>>> measured_value("COc1ccc(Cn2c(CCc3ccccc3)nnc2[C@@H](Cc2c[nH]c3ccccc23)NC(=O)OCC(C)C)cc1.O=C(O)C(F)(F)F [Cpd 17]")
"22.4 ×10⁻⁶ cm/s"

* * *

EXPERIMENTAL SYSTEM: MDR-1 (P-glycoprotein, Pgp) (Homo sapiens (Human), UniProt P08183)
Sequence (P08183 whole entry): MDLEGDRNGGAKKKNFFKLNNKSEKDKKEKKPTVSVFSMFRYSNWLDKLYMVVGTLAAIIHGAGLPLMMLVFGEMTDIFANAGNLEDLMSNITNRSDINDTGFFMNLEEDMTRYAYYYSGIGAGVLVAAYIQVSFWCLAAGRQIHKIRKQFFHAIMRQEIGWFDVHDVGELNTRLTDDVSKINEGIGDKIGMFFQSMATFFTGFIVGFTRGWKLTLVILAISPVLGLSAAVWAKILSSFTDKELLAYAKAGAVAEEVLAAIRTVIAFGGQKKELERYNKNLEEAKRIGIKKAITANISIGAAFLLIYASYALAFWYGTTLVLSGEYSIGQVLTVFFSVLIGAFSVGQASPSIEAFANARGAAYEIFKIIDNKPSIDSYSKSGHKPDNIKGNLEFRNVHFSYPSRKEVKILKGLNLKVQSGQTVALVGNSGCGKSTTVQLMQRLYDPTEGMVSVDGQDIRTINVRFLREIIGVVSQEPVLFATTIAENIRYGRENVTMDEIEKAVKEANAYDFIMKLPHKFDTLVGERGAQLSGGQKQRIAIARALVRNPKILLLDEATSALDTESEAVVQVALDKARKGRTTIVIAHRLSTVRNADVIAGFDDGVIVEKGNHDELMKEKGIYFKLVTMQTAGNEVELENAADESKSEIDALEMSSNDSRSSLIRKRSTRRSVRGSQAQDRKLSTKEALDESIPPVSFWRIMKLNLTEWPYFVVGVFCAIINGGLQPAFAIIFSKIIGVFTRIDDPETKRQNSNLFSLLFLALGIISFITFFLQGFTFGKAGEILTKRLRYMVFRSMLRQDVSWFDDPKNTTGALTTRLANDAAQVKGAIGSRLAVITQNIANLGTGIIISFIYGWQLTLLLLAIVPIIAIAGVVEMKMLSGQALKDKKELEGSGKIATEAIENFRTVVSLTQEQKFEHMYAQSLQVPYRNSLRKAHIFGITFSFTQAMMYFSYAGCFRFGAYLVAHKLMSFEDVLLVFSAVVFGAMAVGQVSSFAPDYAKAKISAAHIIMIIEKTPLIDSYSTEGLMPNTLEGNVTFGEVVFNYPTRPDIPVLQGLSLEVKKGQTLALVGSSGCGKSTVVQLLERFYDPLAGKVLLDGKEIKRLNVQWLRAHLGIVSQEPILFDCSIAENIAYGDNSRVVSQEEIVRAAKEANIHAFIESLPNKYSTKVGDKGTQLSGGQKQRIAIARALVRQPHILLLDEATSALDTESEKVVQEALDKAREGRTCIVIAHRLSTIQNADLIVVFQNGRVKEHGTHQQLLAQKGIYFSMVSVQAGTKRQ
EXPERIMENT SUMMARY: Inhibition of MDR1 ATPase (Pgp-Glo assay, SF9 membrane preparations)
Method: For detection of MDR-1 (P-glycoprotein, Pgp) ATPase activity commercially available membrane preparations of MDR-1 overexpressing SF9 insect cells (SB-MDR1-Sf9-ATPase Membrane; 2.5 mg/500 μL; Solvo/tebu-bio #168SB-MDR1-Sf9-ATPase) were used. […] ATP consumption is detected as a decrease in luminescence from a second reaction with a recombinant firefly luciferase by using the Pgp-Glo™ Assay Kit (Promega # V3591).
pEC50: −log10 of the molar value.
QUANTITY MEASURED: pEC50

>>> measured_value("COc1ccc(Cn2c([C@@H](Cc3c[nH]c4ccccc34)NC(C)=O)nnc2[C@@H](Cc2c[nH]c3ccccc23)NC(=O)c2ccccn2)cc1.O=C(O)C(F)(F)F [Cpd 3]")
4.41
>>> measured_value("COc1ccc(Cn2c([C@@H](Cc3ccccc3)NC(C)=O)nnc2[C@@H](Cc2c[nH]c3ccccc23)NC(=O)[C@@H]2CNCCO2)cc1.O=C(O)C(F)(F)F [Cpd 7]")
5.97
>>> measured_value("COc1ccc(Cn2c(CCc3c[nH]c4ccccc34)nnc2[C@@H](Cc2ccc3ccccc3c2)NC(=O)OC(C)(C)C)cc1.O=C(O)C(F)(F)F [Cpd 15]")
4.79
>>> measured_value("COc1ccc(Cn2c([C@@H](Cc3c[nH]c4ccccc34)NC(C)=O)nnc2[C@@H](Cc2c[nH]c3ccccc23)NC(=O)C(C)(C)N)cc1.O=C(O)C(F)(F)F [Cpd 8]")
3.71
>>> measured_value("COc1ccc(Cn2c([C@@H](Cc3c[nH]c4ccccc34)NC=O)nnc2[C@@H](Cc2c[nH]c3ccccc23)NC(=O)C(C)(C)N)cc1.O=C(O)C(F)(F)F [Cpd 9]")
6.08

* * *

EXPERIMENTAL SYSTEM: UniProtKB Q92847
EXPERIMENT SUMMARY: Competitive binding, iodinated ghrelin tracer, intact LTK-cells overexpressing GHS-R 1A
CONDITION NOTES: 60 min at 37° C.
One threshold, 3 nM, splits the recorded IC50 values: lower ones are Fulfilled, equal or higher ones are Not fulfilled.

>>> assigned_category("COc1ccc(Cn2c(CCc3ccccc3)nnc2[C@@H](Cc2c[nH]c3ccccc23)NC(=O)OCC(C)C)cc1.O=C(O)C(F)(F)F [Cpd 17]")
"Not fulfilled"
>>> assigned_category("COc1ccc(Cn2c([C@@H](Cc3c[nH]c4ccccc34)NC(C)=O)nnc2[C@@H](Cc2c[nH]c3ccccc23)NC(=O)c2ccccn2)cc1.O=C(O)C(F)(F)F [Cpd 3]")
"Fulfilled"
>>> assigned_category("COc1ccc(Cn2c([C@@H](Cc3c[nH]c4ccccc34)NC=O)nnc2[C@@H](Cc2c[nH]c3ccccc23)NC(=O)C(C)(C)N)cc1.O=C(O)C(F)(F)F [Cpd 9]")
"Not fulfilled"
>>> assigned_category("COc1ccc(Cn2c([C@@H](Cc3c[nH]c4ccccc34)NC(C)=O)nnc2[C@@H](Cc2c[nH]c3ccccc23)NC(=O)C(C)(C)N)cc1.O=C(O)C(F)(F)F [Cpd 8]")
"Fulfilled"
>>> assigned_category("COc1ccc(Cn2c(CCc3c[nH]c4ccccc34)nnc2[C@@H](Cc2ccc3ccccc3c2)NC(=O)OC(C)(C)C)cc1.O=C(O)C(F)(F)F [Cpd 15]")
"Not fulfilled"
>>> assigned_category("COc1ccc(Cn2c([C@@H](Cc3ccccc3)NC(C)=O)nnc2[C@@H](Cc2c[nH]c3ccccc23)NC(=O)[C@@H]2CNCCO2)cc1.O=C(O)C(F)(F)F [Cpd 7]")
"Not fulfilled"
>>> assigned_category("COc1ccc(Cn2c([C@@H](Cc3ccccc3)NC=O)nnc2[C@@H](Cc2c[nH]c3ccccc23)NC(=O)c2ccccn2)cc1.O=C(O)C(F)(F)F [Cpd 5]")
"Not fulfilled"
